Entries and their measured MIC follow.
Tested on: P. aeruginosa MP-8 PAO1:mex (mex-oprM-deletion)
measurement-protocol: CLSI broth dilution MIC determination
Assay type: cell-based
condition-info: Pseudomonas aeruginosa, PAO1
experimental-endpoint: MIC

[[record]]
compound = "CC[C@H]1OC(=O)[C@@](C)(F)C(=O)[C@H](C)[C@@H](O[C@@H]2OC(C)CC(N(C)C)C2O)[C@](C)(OC)C[C@@H](C)C(=O)[C@H](C)[C@H]2N(CC#CCn3cc(-c4nccc(N)n4)nn3)C(=O)O[C@]12C (stereo partly shown)"
endpoint_result = "16 µg/mL"

[[record]]
compound = "CC[C@H]1OC(=O)[C@@](C)(F)C(=O)[C@H](C)[C@@H](O[C@@H]2OC(C)CC(N(C)C)C2O)[C@](C)(OC)C[C@@H](C)C(=O)[C@H](C)[C@H]2N(CC#CCn3cc(-c4ccnc(N)n4)nn3)C(=O)O[C@]12C (stereo partly shown)"
endpoint_result = "16 µg/mL"

[[record]]
compound = "CC[C@H]1OC(=O)[C@@](C)(F)C(=O)[C@H](C)[C@@H](O[C@@H]2OC(C)CC(N(C)C)C2O)[C@](C)(OC)C[C@@H](C)C(=O)[C@H](C)[C@H]2N(CC#CCn3cc(-c4cc(F)nc(F)n4)nn3)C(=O)O[C@]12C (stereo partly shown)"
endpoint_result = "> 64 µg/mL"

[[record]]
compound = "CC[C@H]1OC(=O)[C@@](C)(F)C(=O)[C@H](C)[C@@H](O[C@@H]2OC(C)CC(N(C)C)C2O)[C@](C)(OC)C[C@@H](C)C(=O)[C@H](C)[C@H]2N(CC#CCn3cc(-c4cncc(N)n4)nn3)C(=O)O[C@]12C (stereo partly shown)"
endpoint_result = "16 µg/mL"


###

Tested on: A. baumannii ATCC 19606
measurement-protocol: CLSI broth dilution MIC determination
Type: cell-based
condition-info: Acinetobacter baumannii, ATCC19606; A. baumannii ATCC 19606 (MP-15); read-out: MIC
Entries and their measured MIC follow.
experimental-endpoint: MIC (µg/mL)

[[record]]
compound = "CC[C@H]1OC(=O)[C@@](C)(F)C(=O)[C@H](C)[C@@H](O[C@@H]2OC(C)CC(N(C)C)C2O)[C@](C)(OC)C[C@@H](C)C(=O)[C@H](C)[C@H]2N(CC#CCn3cc(-c4cc(F)ccn4)nn3)C(=O)O[C@]12C (stereo partly shown) [FSM-100563]"
experimental_endpoint = "MIC"
endpoint_result = 8

[[record]]
compound = "CC[C@H]1OC(=O)[C@@](C)(F)C(=O)[C@H](C)[C@@H](O[C@@H]2OC(C)CC(N(C)C)C2O)[C@](C)(OC)C[C@@H](C)C(=O)[C@H](C)[C@H]2N(CC#CCn3cc(-c4cccc(N)c4)nn3)C(=O)O[C@]12C (stereo partly shown) [FSM-100426]"
experimental_endpoint = "MIC"
endpoint_result = 16

[[record]]
compound = "CC[C@H]1OC(=O)[C@@](C)(F)C(=O)[C@H](C)[C@@H](O[C@@H]2OC(C)CC(N(C)C)C2O)[C@](C)(OC)C[C@@H](C)C(=O)[C@H](C)[C@H]2N(CC#CCn3cc(-c4cncc(N)n4)nn3)C(=O)O[C@]12C (stereo partly shown) [FSM-22747]"
experimental_endpoint = "MIC"
endpoint_result = 16

[[record]]
compound = "CC[C@H]1OC(=O)[C@@](C)(F)C(=O)[C@H](C)[C@@H](O[C@@H]2OC(C)CC(N(C)C)C2O)[C@](C)(OC)C[C@@H](C)C(=O)[C@H](C)[C@H]2N(CC#CCn3cc(-c4cccnn4)nn3)C(=O)O[C@]12C (stereo partly shown) [FSM-130217]"
experimental_endpoint = "MIC"
endpoint_result = 16

